# ASSAY REMARKS: amyloid nucleation score (Sup35N fusion, yeast selection) (log enrichment); library NNK3; higher = more nucleation; inactive = no reads after selection;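 further: zero at mode of non-aggregating sequences after 7 days selection at 30°C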
READOUT LABEL: amyloid nucleation score

Check out these entries, answers already filled in.
[[record]]
substance = "WIGMYSGETAFLSLPVTQQI"
recorded_measurement = "inactive"

[[record]]
substance = "VIVSREKSITRSNVIEWWNL"
recorded_measurement = 1.82

[[record]]
substance = "WQSRTKP"
recorded_measurement = "inactive"

[[record]]
substance = "YGLFGCLTSVWACRGCYGVV"
recorded_measurement = "inactive"

[[record]]
substance = "ESETWSTYSALQHGQVAIGC"
recorded_measurement = "inactive"


Input VYRLEVDISTILEGWSG . Output amyloid nucleation score: inactive

Input RTIFFFLDSMLIYSRAVCRL . Output amyloid nucleation score: inactive

Input TQDIKLFHRMDFQLSIKMNS . Output amyloid nucleation score: inactive

Input VPVVYGSCCKHRGICMYVL . Output amyloid nucleation score: inactive
